- target_entity: GPR81 (Homo sapiens)
- Sequence (Q9BXC0 whole entry, species assumed): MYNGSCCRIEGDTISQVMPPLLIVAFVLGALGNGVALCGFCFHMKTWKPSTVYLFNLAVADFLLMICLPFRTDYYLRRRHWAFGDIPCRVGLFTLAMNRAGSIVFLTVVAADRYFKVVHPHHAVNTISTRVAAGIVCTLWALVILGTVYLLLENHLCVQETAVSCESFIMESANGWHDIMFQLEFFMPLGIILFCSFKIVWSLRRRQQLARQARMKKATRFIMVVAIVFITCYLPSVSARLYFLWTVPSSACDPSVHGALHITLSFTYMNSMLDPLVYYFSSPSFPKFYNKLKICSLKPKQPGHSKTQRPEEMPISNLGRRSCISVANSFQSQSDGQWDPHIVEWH
- method: GPR81 agonist ligand activity, GTPγS binding assay (species of receptor not given)
- Type: biochemical
- Design: expressed in transfected cells; host or cells: GPR81-expressing cells / membranes (CHO)
- assay_context: yes/no
Where a name gives a salt, the structure may show the parent alone.
outcome_measure: GPR81 agonist activity

1) CC(Cl)(Cl)C(=O)[O-].[Na+] [2,2-dichloropropionic acid, sodium salt]; no
2) CC(O)CC(=O)O (stereo not drawn) [β-hydroxybutyrate]; no
3) O=C(O)C(Br)(Br)Br [tribromoacetate (TEA), tribromoacetate]; no
4) O=C(O)C(F)(F)F [trifluoroacetate (TFA), trifluoroacetate]; yes
